- test.system: Nitric oxide synthase, inducible (Homo sapiens, UniProt P35228)
- Sequence (P35228 whole entry): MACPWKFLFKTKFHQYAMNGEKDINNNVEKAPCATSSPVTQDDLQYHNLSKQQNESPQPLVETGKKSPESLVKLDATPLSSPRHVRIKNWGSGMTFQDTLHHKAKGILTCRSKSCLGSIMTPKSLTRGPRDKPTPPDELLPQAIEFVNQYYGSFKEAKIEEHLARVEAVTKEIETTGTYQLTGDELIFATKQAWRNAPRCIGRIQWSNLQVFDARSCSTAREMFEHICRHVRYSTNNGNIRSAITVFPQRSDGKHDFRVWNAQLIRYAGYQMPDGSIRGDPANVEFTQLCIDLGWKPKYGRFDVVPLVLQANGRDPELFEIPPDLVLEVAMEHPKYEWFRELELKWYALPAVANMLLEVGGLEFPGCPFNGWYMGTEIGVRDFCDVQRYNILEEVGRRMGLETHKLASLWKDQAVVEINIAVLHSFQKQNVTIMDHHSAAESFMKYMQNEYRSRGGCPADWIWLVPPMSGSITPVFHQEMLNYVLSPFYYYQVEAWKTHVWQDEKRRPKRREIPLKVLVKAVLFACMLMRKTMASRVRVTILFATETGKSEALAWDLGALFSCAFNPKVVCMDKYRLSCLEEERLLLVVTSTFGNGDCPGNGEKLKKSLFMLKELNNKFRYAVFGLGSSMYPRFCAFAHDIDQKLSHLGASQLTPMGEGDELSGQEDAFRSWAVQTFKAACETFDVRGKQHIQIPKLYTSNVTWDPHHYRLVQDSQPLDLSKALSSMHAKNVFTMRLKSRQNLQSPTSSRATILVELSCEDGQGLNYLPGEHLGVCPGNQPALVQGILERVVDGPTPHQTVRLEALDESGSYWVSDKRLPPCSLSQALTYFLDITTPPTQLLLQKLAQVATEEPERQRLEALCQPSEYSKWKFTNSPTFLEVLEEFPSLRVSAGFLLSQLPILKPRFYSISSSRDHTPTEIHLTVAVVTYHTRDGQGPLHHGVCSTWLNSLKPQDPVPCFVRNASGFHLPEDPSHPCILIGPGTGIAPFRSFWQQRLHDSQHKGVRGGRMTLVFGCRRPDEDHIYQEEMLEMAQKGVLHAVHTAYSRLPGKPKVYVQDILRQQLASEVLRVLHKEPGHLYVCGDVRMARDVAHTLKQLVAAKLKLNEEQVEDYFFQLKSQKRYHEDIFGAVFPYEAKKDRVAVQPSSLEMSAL
- method.summary: Inhibition of iNOS assessed as conversion of L-[3H]arginine to L-[3H]-citrulline at 50 uM after 30 mins by scintillation counting
Quick reference for inhibition among some compounds
Units required after the number.

{"substance.smiles": "CCCC(=O)N1N=C(c2cc(Cl)ccc2N)SC1(C)C", "recorded.value": "66.2%"}

Problem: Give its inhibition value. Item: CC1(C)SC(c2cc(Cl)ccc2N)=NN1C(=O)C1CCCC1
Result: 21.3%

Problem: What value of inhibition has been reported for the following compound? CC1(C)SC(c2cc(Cl)ccc2N)=NN1C(=O)C1CCCCC1
Result: 7.61%

Problem: Which measured inhibition value corresponds to COc1ccc(N)c(C2=NN(C(C)=O)C(C)(C)S2)c1 ?
Result: 77.1%

Problem: Form field: reported inhibition of COc1ccc(N)c(C2=NN(C(=O)C3CCCC3)C(C)(C)S2)c1
Result: 65%

Problem: Which value of inhibition has been reported for CC1(C)SC(c2ccccc2N)=NN1C(=O)C1CCCC1 in the records?
Result: 42.1%

====

- test.system: Nitric oxide synthase 1 (Homo sapiens) (UniProt P29475)
- Sequence (P29475 whole entry): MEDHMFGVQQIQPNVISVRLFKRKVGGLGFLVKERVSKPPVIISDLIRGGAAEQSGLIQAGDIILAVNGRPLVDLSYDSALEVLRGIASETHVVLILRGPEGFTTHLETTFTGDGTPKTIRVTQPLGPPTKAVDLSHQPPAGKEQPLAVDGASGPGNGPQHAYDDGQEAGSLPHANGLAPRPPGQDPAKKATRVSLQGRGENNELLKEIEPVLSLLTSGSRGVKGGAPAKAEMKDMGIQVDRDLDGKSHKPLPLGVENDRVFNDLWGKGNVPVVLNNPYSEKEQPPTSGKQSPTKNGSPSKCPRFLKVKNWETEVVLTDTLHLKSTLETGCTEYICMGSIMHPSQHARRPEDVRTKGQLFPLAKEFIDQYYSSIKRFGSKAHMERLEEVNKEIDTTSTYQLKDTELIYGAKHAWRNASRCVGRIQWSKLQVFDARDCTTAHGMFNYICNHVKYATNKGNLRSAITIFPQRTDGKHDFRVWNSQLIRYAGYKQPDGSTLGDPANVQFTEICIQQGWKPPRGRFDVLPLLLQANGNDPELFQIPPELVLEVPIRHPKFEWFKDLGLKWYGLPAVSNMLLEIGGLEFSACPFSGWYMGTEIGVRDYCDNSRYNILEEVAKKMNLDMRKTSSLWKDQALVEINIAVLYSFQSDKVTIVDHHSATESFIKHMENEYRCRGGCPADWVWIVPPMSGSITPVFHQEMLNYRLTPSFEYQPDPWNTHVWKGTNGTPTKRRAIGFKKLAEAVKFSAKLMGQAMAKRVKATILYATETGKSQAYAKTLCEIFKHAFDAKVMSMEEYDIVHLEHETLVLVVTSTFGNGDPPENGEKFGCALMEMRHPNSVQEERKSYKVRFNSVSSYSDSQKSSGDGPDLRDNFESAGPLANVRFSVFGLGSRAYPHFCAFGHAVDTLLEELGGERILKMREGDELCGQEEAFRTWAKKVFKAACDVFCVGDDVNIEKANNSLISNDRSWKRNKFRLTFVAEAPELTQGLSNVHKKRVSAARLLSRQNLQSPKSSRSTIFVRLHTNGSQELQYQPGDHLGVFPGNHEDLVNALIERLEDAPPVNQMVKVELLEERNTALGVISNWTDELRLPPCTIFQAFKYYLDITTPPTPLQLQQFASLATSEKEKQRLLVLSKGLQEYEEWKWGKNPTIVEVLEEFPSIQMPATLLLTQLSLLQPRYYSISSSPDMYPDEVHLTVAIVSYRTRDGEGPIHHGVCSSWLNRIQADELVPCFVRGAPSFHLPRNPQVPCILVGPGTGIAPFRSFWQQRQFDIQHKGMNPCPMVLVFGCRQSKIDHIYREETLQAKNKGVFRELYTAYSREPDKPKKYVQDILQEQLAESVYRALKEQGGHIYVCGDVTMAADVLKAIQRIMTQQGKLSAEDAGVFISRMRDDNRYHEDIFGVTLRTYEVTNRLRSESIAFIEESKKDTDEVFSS
- method.summary: Inhibition of nNOS assessed as conversion of L-[3H]arginine to L-[3H]-citrulline at 50 uM after 30 mins by scintillation counting
Entries and their measured inhibition follow.
Answer format: numeric, % implied, no suffix.

{"substance.smiles": "COc1ccc(N)c(C2=NN(C(C)=O)C(C)(C)S2)c1", "units.text": "%", "inhibition": 43.3}
{"substance.smiles": "CCC(=O)N1N=C(c2ccccc2N)SC1(C)C", "units.text": "%", "inhibition": 24.2}
{"substance.smiles": "CCCC(=O)N1N=C(c2cc(OC)ccc2N)SC1(C)C", "units.text": "%", "inhibition": 9.58}
{"substance.smiles": "CCCCC(=O)N1N=C(c2cc(OC)ccc2N)SC1(C)C", "units.text": "%", "inhibition": 14.6}

Problem: Entry under review: CC1(C)SC(c2cc(Cl)ccc2N)=NN1C(=O)C1CC1 . Reported inhibition?
Result: 21.9

Problem: Can you look up the measured inhibition of CC(=O)N1N=C(c2ccccc2N)SC1(C)C for me?
Result: 13.3

Problem: Give the measured inhibition of CC(=O)N1N=C(c2cc(Cl)ccc2N)SC1(C)C .
Result: 22.5

Problem: Recorded inhibition for CCC(=O)N1N=C(c2cc(Cl)ccc2N)SC1(C)C , please?
Result: 18.3

Problem: Look up inhibition for this molecule: CCC(=O)N1N=C(c2cc(OC)ccc2N)SC1(C)C
Result: 8.85

Problem: Dear colleague, I am looking for the recorded inhibition of the following molecule: COc1ccc(N)c(C2=NN(C(=O)C3CCCCC3)C(C)(C)S2)c1
Result: 11.3

Problem: Give the measured inhibition of CCCC(=O)N1N=C(c2cc(Cl)ccc2N)SC1(C)C .
Result: 27.7

Problem: Value lookup for inhibition; key = CC1(C)SC(c2ccccc2N)=NN1C(=O)C1CCC1
Result: 2.98

====

Catalogue of inhibition readings, one per entry.
- test.system: UniProtKB P29475
- method.summary: Inhibition of nNOS assessed as conversion of L-[3H]arginine to L-[3H]-citrulline at 50 uM after 30 mins by scintillation counting
Return type: number; implicit unit %.

Field: example entries. Status: answers known.
{"substance.smiles": "CC1(C)SC(c2ccccc2N)=NN1C(=O)C1CCCCC1", "units.text": "%", "recorded.value": 6.8}
{"substance.smiles": "CCCCC(=O)N1N=C(c2cc(Cl)ccc2N)SC1(C)C", "units.text": "%", "recorded.value": 38}
{"substance.smiles": "COc1ccc(N)c(C2=NN(C(=O)C3CC3)C(C)(C)S2)c1", "units.text": "%", "recorded.value": 9.95}
{"substance.smiles": "COc1ccc(N)c(C2=NN(C(=O)c3ccccc3)C(C)(C)S2)c1", "units.text": "%", "recorded.value": 17.2}
{"substance.smiles": "CCCCC(=O)N1N=C(c2ccccc2N)SC1(C)C", "units.text": "%", "recorded.value": 38}
{"substance.smiles": "CC1(C)SC(c2cc(Cl)ccc2N)=NN1C(=O)C1CCC1", "units.text": "%", "recorded.value": 4.56}
{"substance.smiles": "CC1(C)SC(c2cc(Cl)ccc2N)=NN1C(=O)C1CCCC1", "units.text": "%", "recorded.value": 8.37}
{"substance.smiles": "CC1(C)SC(c2ccccc2N)=NN1C(=O)C1CC1", "units.text": "%", "recorded.value": 7.32}

Problem: Tell me the measured inhibition of COc1ccc(N)c(C2=NN(C(=O)C3CCC3)C(C)(C)S2)c1 , please.
Result: 13.7

Problem: So what's the measured inhibition for this one? CC1(C)SC(c2cc(Cl)ccc2N)=NN1C(=O)c1ccccc1
Result: 23.6

Problem: Tell me the measured inhibition of CCCC(=O)N1N=C(c2ccccc2N)SC1(C)C , please.
Result: 17.5

Problem: Query: inhibition; subject: CC1(C)SC(c2ccccc2N)=NN1C(=O)C1CCCC1
Result: 9.34

====

- test.system: Nitric oxide synthase, inducible (Homo sapiens, UniProt P35228)
- method.summary: Inhibition of iNOS assessed as conversion of L-[3H]arginine to L-[3H]-citrulline at 50 uM after 30 mins by scintillation counting
satisfied means recorded inhibition is 60% or above; not satisfied means it is below 60%.

Examples from the recorded data:
{"substance.smiles": "COc1ccc(N)c(C2=NN(C(=O)C3CCCCC3)C(C)(C)S2)c1", "assigned.label": "satisfied"}
{"substance.smiles": "CCCCC(=O)N1N=C(c2cc(OC)ccc2N)SC1(C)C", "assigned.label": "satisfied"}
{"substance.smiles": "CCCC(=O)N1N=C(c2ccccc2N)SC1(C)C", "assigned.label": "not satisfied"}
{"substance.smiles": "COc1ccc(N)c(C2=NN(C(=O)C3CC3)C(C)(C)S2)c1", "assigned.label": "satisfied"}

Problem: Could you please find out whether CC1(C)SC(c2cc(Cl)ccc2N)=NN1C(=O)C1CCC1 has inhibition that meets 60% or exceeds it?
Result: not satisfied

====

Please consider the recorded IC50 for UniProt:P35228 in what follows.
Give the value in µM but do not write µM after it.

{"substance.smiles": "CCCC(=O)N1N=C(c2cc(OC)ccc2N)SC1(C)C", "IC50 (µM)": 29.6}

Here is another compound to look at.
Problem: Any idea what IC50 came out for COc1ccc(N)c(C2=NN(C(=O)C3CC3)C(C)(C)S2)c1 on UniProt:P35228?
Result: 41

====

- test.system: Nitric oxide synthase 1 (Homo sapiens) (UniProt P29475)
- method.summary: Inhibition of nNOS assessed as conversion of L-[3H]arginine to L-[3H]-citrulline at 50 uM after 30 mins by scintillation counting
measured.quantity: inhibition (%)
Number only, in %; omit the unit.

Past entries and their recorded results:
{"substance.smiles": "CC1(C)SC(c2cc(Cl)ccc2N)=NN1C(=O)C1CCCCC1", "inhibition, %": 23.1}
{"substance.smiles": "CC1(C)SC(c2ccccc2N)=NN1C(=O)c1ccccc1", "inhibition, %": 42.4}

--- query ---
Problem: Notebook: pull reported inhibition for Nitric oxide synthase 1 (Homo sapiens) (UniProt P29475), entry COc1ccc(N)c(C2=NN(C(=O)C3CCCC3)C(C)(C)S2)c1
Result: 17.4

====

- test.system: Nitric oxide synthase, inducible (Homo sapiens, UniProt P35228)
- method.summary: Inhibition of iNOS assessed as conversion of L-[3H]arginine to L-[3H]-citrulline at 50 uM after 30 mins by scintillation counting
measured.quantity: inhibition (%)
Report only the number, with the unit % understood.

For orientation, consider the following solved cases.
{"substance.smiles": "COc1ccc(N)c(C2=NN(C(=O)c3ccccc3)C(C)(C)S2)c1", "inhibition, %": 0}
{"substance.smiles": "CCC(=O)N1N=C(c2ccccc2N)SC1(C)C", "inhibition, %": 19.2}

Problem: Consider the molecule shown here: CCCCC(=O)N1N=C(c2ccccc2N)SC1(C)C What is its recorded inhibition?
Result: 39

Problem: Suppose we examine the molecule CC(=O)N1N=C(c2ccccc2N)SC1(C)C ; what inhibition value has been reported?
Result: 22.9

Problem: // query inhibition value for entry CC1(C)SC(c2cc(Cl)ccc2N)=NN1C(=O)C1CC1
Result: 23.2

Problem: Consider the molecule CC1(C)SC(c2cc(Cl)ccc2N)=NN1C(=O)c1ccccc1 and give its measured inhibition.
Result: 20.8

====

- test.system: Nitric oxide synthase, inducible (Homo sapiens, UniProt P35228)
- method.summary: Inhibition of iNOS assessed as conversion of L-[3H]arginine to L-[3H]-citrulline at 50 uM after 30 mins by scintillation counting
Classification field: met = inhibition at or over 50%; not met = inhibition under 50%.

Field: example entries. Status: answers known.
{"substance.smiles": "COc1ccc(N)c(C2=NN(C(=O)C3CCC3)C(C)(C)S2)c1", "assigned.label": "met"}
{"substance.smiles": "CCC(=O)N1N=C(c2cc(Cl)ccc2N)SC1(C)C", "assigned.label": "not met"}
{"substance.smiles": "CCC(=O)N1N=C(c2cc(OC)ccc2N)SC1(C)C", "assigned.label": "met"}
{"substance.smiles": "CCCC(=O)N1N=C(c2cc(OC)ccc2N)SC1(C)C", "assigned.label": "met"}
{"substance.smiles": "CC1(C)SC(c2ccccc2N)=NN1C(=O)C1CCC1", "assigned.label": "not met"}

Problem: Given the entry CC1(C)SC(c2ccccc2N)=NN1C(=O)C1CCCCC1 , answer whether its inhibition meets or surpasses 50%.
Result: not met

Problem: Textbook exercise: given the entry CC1(C)SC(c2ccccc2N)=NN1C(=O)C1CC1 , state whether its inhibition is greater than or equal to 50%.
Result: met

Problem: # bool: inhibition of CC1(C)SC(c2ccccc2N)=NN1C(=O)c1ccccc1 >= 50%
Result: not met

Problem: Determine whether measured inhibition meets or exceeds 50% for CC(=O)N1N=C(c2cc(Cl)ccc2N)SC1(C)C
Result: met

Problem: Hello, I need to know if CCCCC(=O)N1N=C(c2cc(Cl)ccc2N)SC1(C)C has measured inhibition not below 50%. Thanks!
Result: not met
